Each recorded value in this set is attributed to patent US20110288086A1.

- testedTarget: aurora kinase B (Homo sapiens, UniProt Q96GD4)
- Construct: purchased Invitrogen PV3174
- Sequence (Q96GD4 whole entry): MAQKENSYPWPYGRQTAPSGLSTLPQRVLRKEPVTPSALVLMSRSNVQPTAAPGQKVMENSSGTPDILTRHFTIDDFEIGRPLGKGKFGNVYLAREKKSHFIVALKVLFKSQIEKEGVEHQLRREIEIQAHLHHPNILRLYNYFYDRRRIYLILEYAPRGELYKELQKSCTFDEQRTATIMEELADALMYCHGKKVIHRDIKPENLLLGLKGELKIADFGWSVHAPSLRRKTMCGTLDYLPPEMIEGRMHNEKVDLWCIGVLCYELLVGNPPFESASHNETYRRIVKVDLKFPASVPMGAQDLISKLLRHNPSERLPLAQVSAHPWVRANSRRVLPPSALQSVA
- measurementDescription: Aurora kinase B inhibition in vitro (Invitrogen aurora kinase screening kit PV3174)
- Format: biochemical
- testSettings: 40 μM
# The inhibition ratio of the compound on Aurora B(%) annotations
measuredQuantity: The inhibition ratio of the compound on Aurora B(%)

compound | result
COCCOc1cc2c(cc1OCCOC)C1=Nc3cccc(C#N)c3CN1C=N2 | 23.2
COCCOc1cc2c(cc1OCCOC)C1=Nc3ccc(F)c(Cl)c3CN1C=N2 | 55.2
CS(=O)(=O)CCNCc1ccc(-c2ccc3c(c2)C2=Nc4ccc(OCc5cccc(F)c5)c(Cl)c4CN2C=N3)o1 | 54.6
COCCOc1cc2c(cc1OCCOC)C1=Nc3cc(O)ccc3CN1C=N2 | 23.2
COCCOc1cc2c(cc1OCCOC)C1=Nc3cccc(NC(=O)c4ccccc4)c3CN1C=N2 | 40.1
COc1cc2c(cc1OCCCN1CCCC1)C1=Nc3cccc(Cl)c3CN1C=N2 | 52.5
COCCOc1cc2c(cc1OCCOC)C1=Nc3cccc(Br)c3CN1C=N2.Cl | 53.2
COCCOc1cc2c(cc1OCCOC)C1=Nc3ccc(OCc4cccc(F)c4)c(Cl)c3CN1C=N2 | 23.2
C#Cc1cccc2c1CN1C=Nc3cc(OC)c(OC)cc3C1=N2 | 10.6
COCCOc1cc2c(cc1OCCOC)C1=Nc3cccc(NC(C)=O)c3CN1C=N2 | 53.5
COCCOc1cc2c(cc1OCCOC)C1=Nc3cc(COS(C)(=O)=O)cc([N+](=O)[O-])c3CN1C=N2.Cl | 58.9
COCCOc1cc2c(cc1OCCOC)C1=Nc3cc(Cl)ccc3C(C)N1C=N2.O=C(O)CC(O)C(=O)O (stereo not shown) | 57.2
COCCOc1cc2c(cc1OCCOC)C1=Nc3cc(C#N)ccc3CN1C=N2 | 26.4

* * *

The molecules listed here are annotated with their inhibition at 100 µM.
- System: Colo320 human rectal cancer cells
- measurementDescription: Tumor cell inhibition ratio, CCK-8 kit, Colo320
- testSettings: COLO 320, read-out: Antiproliferative effect (inhibition ratio) Colo320
Counter-ions that a name gives are not always drawn.
measuredQuantity: inhibition at 100 µM

molecule | result
COCCOc1cc2c(cc1OCCOC)C1=Nc3cc(Cl)ccc3C(C)N1C=N2.O=C(O)CC(O)C(=O)O (stereo not drawn) [Compound V-22, malate] | 99%
COCCOc1cc2c(cc1OCCOC)C1=Nc3cc(C#N)ccc3CN1C=N2 | 26.1%
COCCOc1cc2c(cc1OCCOC)C1=Nc3cccc(F)c3CN1C=N2 [Compound V-3, mesylate] | 79%
C#Cc1ccc2c(c1)N=C1c3cc(OCCOC)c(OCCOC)cc3N=CN1C2 | 89.6%
C#Cc1cccc2c1CN1C=Nc3cc(OCCOC)c(OCCOC)cc3C1=N2.Cl [Compound V-4, hydrochloride trihydrate] | 83.4%
CS(=O)(=O)CCNCc1ccc(-c2ccc3c(c2)C2=Nc4ccc(OCc5cccc(F)c5)c(Cl)c4CN2C=N3)o1 | 96.3%
COc1cc2c(cc1OCCCN1CCOCC1)C1=Nc3ccc(F)c(Cl)c3CN1C=N2 [Compound V-23, di-p-toluenesulfonate] | 99.5%
COCCOc1cc2c(cc1OCCOC)C1=Nc3cccc([N+](=O)[O-])c3CN1C=N2 | 84.9%
COCCOc1cc2c(cc1OCCOC)C1=Nc3cccc(C(F)(F)F)c3CN1C=N2 | 73.3%
COCCOc1cc2c(cc1OCCOC)C1=Nc3cc(CO)cc(N)c3CN1C=N2 | 87%
COCCOc1cc2c(cc1OCCOC)C1=Nc3cccc(Br)c3CN1C=N2.Cl [Compound V-2, hydrochloride hemihydrate] | 89.6%
COCCOc1cc2c(cc1OCCOC)C1=Nc3cc(Cl)ccc3CN1C=N2 | 96.5%
C#Cc1cccc2c1CN1C=Nc3cc(OC)c(OC)cc3C1=N2 | 92.8%
COCCOc1cc2c(cc1OCCOC)C1=Nc3cc(F)ccc3CN1C=N2 | 99.4%
C#Cc1cccc2c1CN1C=Nc3cc(OC)c(OCCCN4CCOCC4)cc3C1=N2 | 81.4%
COc1cc2c(cc1OCCCN1CCCC1)C1=Nc3cccc(Cl)c3CN1C=N2 | 99.4%
COCCOc1cc2c(cc1OCCOC)C1=Nc3cccc(O)c3CN1C=N2 | 94.8%
Br.COCCOc1cc2c(cc1OCCOC)C1=Nc3cccc(N)c3CN1C=N2 [Compound V-6, hydrobromide trihydrate] | 99.2%
COc1cc2c(cc1OCCCN1CCOCC1)C1=Nc3cccc(C#N)c3CN1C=N2 | 84.8%
COc1cc2c(cc1OCCCN1CCOCC1)C1=Nc3cc(Cl)ccc3CN1C=N2 | 63.3%
COCCOc1cc2c(cc1OCCOC)C1=Nc3cccc(OC)c3CN1C=N2 | 72.8%
